system: NCI-H522; experiment: NCI tumour cell line growth inhibition, 48 h
Calls of active or inactive are those of the source. No stated cut-off is given here; in the data, active = GI50 up to about 1.1 µM and inactive = higher.
Permitted responses: active, inactive

Example entries begin here.
O=C(N/C(=C\c1c(O)ccc2ccccc12)c1nc2ccccc2[nH]1)c1ccccc1; inactive
CCC(=O)N(c1ccccc1)C(C)CN1CCC(O)(c2cccc(C(F)(F)F)c2)CC1 (centres undefined); inactive
CC(=O)OCC1OC(N=[N+]=[N-])C(OC(C)=O)C(OC(C)=O)C1OC1OC(COC(C)=O)C(OC(C)=O)C(OC(C)=O)C1OC(C)=O (centres undefined); inactive
COc1cc2c(cc1OC)C1(c3ccc(Cl)cc3)ON=C(c3ccccc3)N1CS2 (centres undefined); inactive
COC(=O)C1c2cc3c(cc2C(OC2OC(C)C(OC)C(C)(OC)C2OC)CC1(C)O)C(=O)c1c(O)cc2c(c1C3=O)OC1OC2(C)C(O)C([N+](C)(C)[O-])C1O (centres undefined); active
O=C1c2c(O)cccc2C(C2OC(CO)C(O)C(O)C2O)c2cc(CO)cc(O)c21 (centres undefined); inactive
O=C1CCC2(c3ccccc3)Nc3cc(Cl)ccc3N12 (centres undefined); inactive
COc1cc2oc(=O)ccc2cc1CC=C(C)C; inactive

// query For CCOC(=O)C(CC(C)C)NC(=O)C(N)Cc1ccc(N(CCCl)CCCl)cc1 (centres undefined) , which call appears in the assay record?
// result inactive
